- Tested on: CSNK2A1
- SETUP_CONDITIONS: concentration: 1 μM, replicates: in singlicate; n = 1;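 also: KINOMEscan kinase panel screen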
QUANTITY_NAME: %Inh (%)
# unit: % | format: bare number

See these solved cases before continuing.
[
  {
    "COMPOUND": "Cc1ccc(C)c(NC(=O)NC2CCN(c3ccnc(Nc4ccc(F)cc4)n3)C2)c1 (stereo not shown) [GSK1379720]",
    "NUMERIC_READOUT": 0
  },
  {
    "COMPOUND": "CCn1c(-c2nonc2N)nc2c(C#CC(C)(C)O)nc(OC[C@H](N)c3ccccc3)cc21 [GSK943949]",
    "NUMERIC_READOUT": 0
  },
  {
    "COMPOUND": "O=C(Nc1n[nH]c2cc(-c3ccoc3)ccc12)C1CC1 [SB-738481]",
    "NUMERIC_READOUT": 35
  }
]

Requested field: %Inh. Item: O=C(O)C(F)(F)F.O=C(O)C(F)(F)F.O=c1[nH]ccc2nc(N[C@@H]3CCCNC3)nc(Nc3ccc(S(=O)(=O)N4CCOCC4)cc3)c12 [GSK2177277] 98.7

====

- Test system: TSSK1B
- SETUP_CONDITIONS: concentration: 1 μM, replicates: in singlicate; n = 1
List of %Inh values.
# unit: % | format: bare number

See these solved cases before continuing.
[
  {
    "COMPOUND": "Nc1n[nH]c2cnc(-c3ccccc3)cc12",
    "SUBJECT_OF_TEST": "TSSK1B",
    "QUANTITY_NAME": "%Inh",
    "NUMERIC_READOUT": 30
  },
  {
    "COMPOUND": "CCn1c(-c2nonc2N)nc2c(C#CC(C)(C)O)nc(OC[C@H](N)c3ccccc3)cc21",
    "SUBJECT_OF_TEST": "TSSK1B",
    "QUANTITY_NAME": "%Inh",
    "NUMERIC_READOUT": 49
  }
]

What reported %Inh corresponds to `CN(C)S(=O)(=O)c1cc(-c2ccc3nccc(-c4cccc(S(N)(=O)=O)c4)c3c2)cnc1N` on TSSK1B? 3

What reported %Inh corresponds to `FC(F)(F)c1ccc(/C=C/c2cncnc2Nc2ccc3[nH]c(Cc4ccccc4)nc3c2)cc1` on TSSK1B? 0

What reported %Inh corresponds to `O=C(Nc1n[nH]c2cc(-c3ccoc3)ccc12)C1CC1` on TSSK1B? 0

What reported %Inh corresponds to COc1cc(Nc2nccc(N3CCC(NC(=O)c4cc5ccccc5s4)C3)n2)cc(OC)c1OC (stereo not shown) on TSSK1B? 0

What reported %Inh corresponds to `COC(=O)Nc1nc2cc(Oc3ccc(NC(=O)Nc4cc(C(F)(F)F)ccc4F)cn3)ccc2[nH]1.Cl.Cl` on TSSK1B? 0

What reported %Inh corresponds to `COC(=O)Nc1nc2ccc(Oc3ccc(NC(=O)Nc4cc(C(F)(F)F)ccc4F)cc3)cc2n1C.Cl` on TSSK1B? 0

What reported %Inh corresponds to COc1cccc(NC(=O)NC2CCN(c3ccnc(Nc4cc(OC)c(OC)c(OC)c4)n3)C2)c1 (stereo not shown) on TSSK1B? 3

====

List of %Inh values.
- System: HIPK2
- SETUP_CONDITIONS: concentration: 1 μM, replicates: in singlicate; n = 1
# unit: % | format: bare number

See these solved cases before continuing.
[
  {
    "COMPOUND": "O=C(O)C(F)(F)F.O=C(O)C(F)(F)F.O=c1[nH]ccc2nc(N[C@@H]3CCCNC3)nc(Nc3ccc(S(=O)(=O)N4CCOCC4)cc3)c12 [GSK2177277]",
    "RESULT_UNITS": "%",
    "%Inh": 92.9
  },
  {
    "COMPOUND": "COc1ccc(Nc2nccc(N3CCC(NC(=O)Nc4cccc(OC)c4)C3)n2)cc1 (stereo not shown) [GSK1379742]",
    "RESULT_UNITS": "%",
    "%Inh": 28
  },
  {
    "COMPOUND": "O=C(Nc1n[nH]c2cc(-c3ccoc3)ccc12)C1CC1 [SB-738481]",
    "RESULT_UNITS": "%",
    "%Inh": 65
  },
  {
    "COMPOUND": "Cc1ccc(S(=O)(=O)Nc2ccc(Nc3nccc(Nc4cccc5[nH]ncc45)n3)cc2)cc1 [GSK581271]",
    "RESULT_UNITS": "%",
    "%Inh": 0
  },
  {
    "COMPOUND": "CCn1c(-c2nonc2N)nc2c(C#CC(C)(C)O)ncc(OCCCCN)c21.O=C(O)C(F)(F)F.O=C(O)C(F)(F)F [GSK507274]",
    "RESULT_UNITS": "%",
    "%Inh": 57
  },
  {
    "COMPOUND": "Nc1n[nH]c2cnc(-c3ccccc3)cc12 [SB-642124]",
    "RESULT_UNITS": "%",
    "%Inh": 78
  },
  {
    "COMPOUND": "COC(=O)Nc1nc2ccc(Oc3ccc(NC(=O)Nc4cc(C(F)(F)F)ccc4F)cc3)cc2n1C.Cl [GW692089]",
    "RESULT_UNITS": "%",
    "%Inh": 3
  },
  {
    "COMPOUND": "COc1cc(Nc2nccc(-c3c(-c4cccc(NC(=O)c5c(F)cccc5F)c4)nn4ccccc34)n2)cc(OC)c1OC [GSK323521]",
    "RESULT_UNITS": "%",
    "%Inh": 0
  }
]

Requested field: %Inh. Item: CCn1c(-c2nonc2N)nc2c(C#CC(C)(C)O)nc(OC[C@H](N)c3ccccc3)cc21 [GSK943949] 0

Requested field: %Inh. Item: `CC(=O)Nc1nc2cnc(Nc3cc(NC(=O)c4cccc(C5(C#N)CC5)c4Cl)ccc3C)nc2s1` 0

Requested field: %Inh. Item: Nc1ncc(-c2cccnc2)c2scc(-c3ccc4c(c3)CCN4C(=O)Cc3ccccc3)c12 [GSK683281] 0

Requested field: %Inh. Item: CC(C)(C)c1ccc2nccc(Nc3cccc(O)c3)c2c1 [GW856795] 50

Requested field: %Inh. Item: NCCCC(NC(=O)c1cc(Br)c(-c2ccnc3[nH]ccc23)s1)c1ccccc1.O=C(O)C(F)(F)F.O=C(O)C(F)(F)F (stereo not shown) [GSK1287544] 14
